Give measured pIC50 for each item. Keep answers brief.
- target-entity: UniProt:P11597
- assay-remarks: Inhibition of CETP in human plasma
Give bare numbers, as −log10 of the molar value.

Worked cases, answers included:
{"compound": "CCOC(=O)N1c2ccc(Br)cc2N(C(C(=O)OC)c2cc(C(F)(F)F)cc(C(F)(F)F)c2)CC1CC (configuration not stated)", "target-entity": "UniProt:P11597", "pIC50": 5.72}
{"compound": "CCC1CN(C(c2cc(C(F)(F)F)cc(C(F)(F)F)c2)c2nnn(C)n2)c2cc(C(F)(F)F)ccc2N1C(=O)N1CCCC1 (configuration not stated)", "target-entity": "UniProt:P11597", "pIC50": 4.00}
{"compound": "CCC1CN(C(c2cc(C(F)(F)F)cc(C(F)(F)F)c2)c2nnn(C)n2)c2cc(C(F)(F)F)ccc2N1C(=O)N1CCOCC1 (configuration not stated)", "target-entity": "UniProt:P11597", "pIC50": 4.43}
{"compound": "CCOC(=O)N1c2ccc(C(F)(F)F)cc2N(C(c2cc(C(F)(F)F)cc(C(F)(F)F)c2)c2nnn(C)n2)C[C@H]1CC (stereo in doubt; (D2)-55d)", "target-entity": "UniProt:P11597", "pIC50": 6.84}
{"compound": "CCOC(=O)N1c2ccc(C(F)(F)F)cc2N(C(c2cc(C(F)(F)F)cc(C(F)(F)F)c2)c2nnn(CCN(C)C)n2)CC1CC (configuration not stated)", "target-entity": "UniProt:P11597", "pIC50": 5.11}

// below: pIC50 requested for another compound
Q) Look up pIC50: CCOC(=O)N1c2ccc(C(F)(F)F)cc2N(C(c2cc(C(F)(F)F)cc(C(F)(F)F)c2)c2nnn(C)n2)CC1CC (stereo in doubt; (D1)-28a)
A) 6.06

---

- target-entity: Cholesteryl ester transfer protein (Homo sapiens)
- Sequence (P11597 whole entry): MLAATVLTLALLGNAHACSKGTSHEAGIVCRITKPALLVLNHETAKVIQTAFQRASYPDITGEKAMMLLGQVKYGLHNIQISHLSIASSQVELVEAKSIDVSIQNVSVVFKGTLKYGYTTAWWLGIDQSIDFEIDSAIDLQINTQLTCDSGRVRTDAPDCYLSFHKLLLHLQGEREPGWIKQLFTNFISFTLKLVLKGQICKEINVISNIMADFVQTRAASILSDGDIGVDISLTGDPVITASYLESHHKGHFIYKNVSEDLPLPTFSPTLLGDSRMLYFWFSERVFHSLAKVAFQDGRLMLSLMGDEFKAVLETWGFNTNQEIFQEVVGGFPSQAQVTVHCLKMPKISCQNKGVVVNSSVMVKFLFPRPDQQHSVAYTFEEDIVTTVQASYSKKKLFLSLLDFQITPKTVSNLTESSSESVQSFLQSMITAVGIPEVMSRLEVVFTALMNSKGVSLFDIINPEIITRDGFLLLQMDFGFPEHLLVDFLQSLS
- assay-remarks: Inhibition of CETP in human plasma
measurement-type: IC50
Please state the value followed by its unit.

{"compound": "CCC1CN(C(c2cc(C(F)(F)F)cc(C(F)(F)F)c2)c2nnn(C)n2)c2cc(C(F)(F)F)ccc2N1C(=O)NCCO (stereo in doubt; (D2)-33b)", "IC50": "4.57 µM"}
{"compound": "CCOC(=O)N1c2ccc(C(F)(F)F)cc2N(C(c2cc(C(F)(F)F)cc(C(F)(F)F)c2)c2nnn(CCO)n2)CC1CC (stereo in doubt; (D2)-46b)", "IC50": "2.22 µM"}

I'm hoping you can list IC50 for every compound here, please.
1. CCOC(=O)N1c2ccc(C(F)(F)F)cc2N(C(c2cc(C(F)(F)F)cc(C(F)(F)F)c2)c2nnn(CC(N)=O)n2)CC1CC (stereo in doubt; (D2)-50b)
2. CCC1CN(C(c2cc(C(F)(F)F)cc(C(F)(F)F)c2)c2nnn(C)n2)c2cc(C(F)(F)F)ccc2N1C(=O)OCC(C)C (stereo unspecified)
3. CCOC(=O)N1c2ccc(C(F)(F)F)cc2N(C(c2cc(C(F)(F)F)cc(C(F)(F)F)c2)c2nnn(CC(=O)OC)n2)CC1CC (stereo unspecified)
4. CCCCOC(=O)N1c2ccc(C(F)(F)F)cc2N(C(c2cc(C(F)(F)F)cc(C(F)(F)F)c2)c2nnn(C)n2)CC1CC (stereo unspecified)

A)
1. 100 µM
2. 0.232 µM
3. 32.5 µM
4. 1.11 µM
